Value source: patent US5242929A

Target: 5HT3 receptor (Rattus norvegicus, UniProt P35563)
Sequence (P35563 24-483): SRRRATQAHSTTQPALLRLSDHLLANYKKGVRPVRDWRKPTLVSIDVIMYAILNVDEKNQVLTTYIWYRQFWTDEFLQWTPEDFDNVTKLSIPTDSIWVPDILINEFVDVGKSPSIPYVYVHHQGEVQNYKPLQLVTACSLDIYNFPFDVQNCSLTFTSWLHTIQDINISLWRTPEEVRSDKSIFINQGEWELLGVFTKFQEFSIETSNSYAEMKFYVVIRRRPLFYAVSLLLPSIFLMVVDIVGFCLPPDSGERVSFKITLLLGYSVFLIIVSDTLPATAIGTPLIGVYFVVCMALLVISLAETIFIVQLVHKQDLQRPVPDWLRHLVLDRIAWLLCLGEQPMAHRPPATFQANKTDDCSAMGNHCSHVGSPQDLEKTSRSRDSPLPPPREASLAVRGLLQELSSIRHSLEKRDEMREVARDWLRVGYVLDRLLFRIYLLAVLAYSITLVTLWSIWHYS
Test: inhibition of the binding of ^3 H-GR65630 in rat entorhinal cortex
Set-up: labeled in the entorhinal cortex of the rat brain; from tissue; host or cells: rat entorhinal cortex
metric: pKi
# pKi is unitless: minus log10 of the molar concentration; print number only

O=C1N(c2cccc(Cl)c2)CCN1C1CN2CCC1CC2 (stereo not drawn) [FCE 26778]
8.35
CCN(CC)CCNC(=O)c1cc(Cl)c(N)cc1OC [Metoclopramide]
6.26

Give its pKi value. Item: CN1C2CCC1CC(OC(=O)c1cc(Cl)cc(Cl)c1)C2 (stereo not drawn) [MDL 72222]
7.59
